- SUBJECT OF TEST: human DGKζ (Homo sapiens (Human))
- Sequence (Q13574 other isoform, or with tags, fused parts or gaps): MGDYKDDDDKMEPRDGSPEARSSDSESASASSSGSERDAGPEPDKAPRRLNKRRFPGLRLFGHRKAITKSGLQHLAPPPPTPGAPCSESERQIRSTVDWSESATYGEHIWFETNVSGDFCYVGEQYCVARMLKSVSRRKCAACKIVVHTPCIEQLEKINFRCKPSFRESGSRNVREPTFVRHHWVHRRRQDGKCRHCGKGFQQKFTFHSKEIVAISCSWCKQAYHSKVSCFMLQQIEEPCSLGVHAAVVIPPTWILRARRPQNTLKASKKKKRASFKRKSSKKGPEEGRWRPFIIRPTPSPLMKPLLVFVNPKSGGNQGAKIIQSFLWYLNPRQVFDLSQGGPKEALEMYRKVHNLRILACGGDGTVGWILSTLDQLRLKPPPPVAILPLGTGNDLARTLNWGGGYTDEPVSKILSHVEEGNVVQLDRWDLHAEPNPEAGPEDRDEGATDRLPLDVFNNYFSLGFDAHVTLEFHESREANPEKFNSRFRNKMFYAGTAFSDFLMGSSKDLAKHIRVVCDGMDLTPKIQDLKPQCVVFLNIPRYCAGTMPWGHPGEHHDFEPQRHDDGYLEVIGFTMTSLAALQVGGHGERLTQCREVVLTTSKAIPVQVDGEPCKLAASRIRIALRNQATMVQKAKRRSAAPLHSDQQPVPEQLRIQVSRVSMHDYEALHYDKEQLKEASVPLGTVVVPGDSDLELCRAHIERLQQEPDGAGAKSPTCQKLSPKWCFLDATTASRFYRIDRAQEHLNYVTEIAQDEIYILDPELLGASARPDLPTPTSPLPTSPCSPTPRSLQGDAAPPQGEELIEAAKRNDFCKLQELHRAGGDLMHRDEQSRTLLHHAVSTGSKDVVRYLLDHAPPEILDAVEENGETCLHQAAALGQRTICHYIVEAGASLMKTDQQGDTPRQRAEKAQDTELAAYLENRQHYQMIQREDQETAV
- EXPERIMENT: Human DGKζ kinase activity inhibition assay (ADP-Glo)
- Format: biochemical
- MEASUREMENT CONDITIONS: in vitro human DGKζ kinase activity inhibition assay; read-out: IC50
MEASUREMENT LABEL: IC50 (nM)
Numeric only. Scale: nM

Previously resolved entries follow.
COMPOUND: CC(C(N)=O)N(c1ccc(F)cc1)c1nc(N)c(C(=O)c2ccc(O)cc2)s1 (single isomer, unassigned) [Example 286]
IC50, nM: 31

COMPOUND: CC(C(N)=O)N(c1ccc(Cl)cc1)c1nc(N)c(C(=O)c2ccc(Cl)cc2)s1 (single isomer, unassigned) [Example 41.2]
IC50, nM: 7.73

COMPOUND: CC(C(N)=O)N(c1ccc(OCc2ccccc2)cc1)c1nc(N)c(C(=O)c2ccc(OC(F)F)cc2)s1 (racemic) [Example 182]
IC50, nM: 91

COMPOUND: CC(C(N)=O)N(c1ccc(OC(F)F)c(F)c1)c1nc(N)c(C(=O)c2ccc(OC(F)F)nc2)s1 (racemic) [Example 209]
IC50, nM: 45

COMPOUND: CC(C(N)=O)N(c1ccc(F)cc1)c1nc(N)c(C(=O)c2ccc(OCC(=O)N3CCOCC3)cc2)s1 (racemic) [Example 88]
IC50, nM: 667

COMPOUND: CC(C(N)=O)N(c1ccc(C(F)(F)F)cc1)c1nc(N)c(C(=O)c2ccc(OC(F)F)cc2)s1 (racemic) [Example 43]
IC50, nM: 11.1

Next item in the queue.
Ask | Entry CC(C(N)=O)N(c1ccc(F)c(F)c1)c1nc(N)c(C(=O)c2cccnc2)s1 (racemic) [Example 184] : reported IC50 = ?
Reply | 428
